Tested on: Nakaseomyces glabratus
ASSAY_PROCEDURE: Antimicrobial activity against Candida glabrata at 50 ug/disk after 5 days
Format: functional
RUN_PARAMETERS: 120 h, read-out: IZ

# ITEM_SMILES, zone of inhibition at 50 µg/disc [mm]
rows = [
    ("Cc1n[nH]c2nc3nc4c(c(-c5ccccc5)c3c(=O)n12)CCCC4", 13),
    ("Cc1cc(C)n(-c2nc3nc4c(c(-c5ccccc5)c3c(=O)[nH]2)CCCC4)n1", 9),
    ("CC(=O)NNc1nc2nc3c(c(-c4ccccc4)c2c(=O)[nH]1)CCCC3", 16),
    ("O=c1[nH]c(N/N=C\\c2ccccc2)nc2nc3c(c(-c4ccccc4)c12)CCCC3", 7),
]
